// provenance: patent US20120004235A1

# test description: Half-life in nude mice (Example 22)
# Format: in vivo
# stated conditions: mouse, in vivo; nude mice, po
reported metric: half-life (h)
Please give a number only; it is taken to be in h.

Exercise: Item under review: CNCCn1c(=O)c2cc(OC)c(OC)cc2c2cnc3cc4c(cc3c21)OCO4 . Reported half-life?
Solution: 3.6

====

# System: MDA-MB-231 Human Breast Carcinoma
# test description: Human tumor cell CFU assay (Test B)
# Type: cell-based
# stated conditions: Homo sapiens, MDA-MB-231; colony formation, continuous exposure 7-9 days; read-out: IC90 Values (95% Lower and Upper Confidence Intervals)
reported metric: IC90 (nM)
Please give a number only; it is taken to be in nM.

Record excerpt, results attached:
molecule	quantitative readout
CNCCn1c(=O)c2cc(OC)c(OC)cc2c2cnc3cc4c(cc3c21)OCO4	0.7
CC[C@@]1(O)C(=O)OCc2c1cc1n(c2=O)Cc2cc3c(CN(C)C)c(O)ccc3nc2-1 [Topotecan, reference compound]	19.5

Exercise: Item under review: COc1cc2c(C(=O)NCC(C)(C)N(C)C)cc3c4cc5c(cc4ncc3c2cc1OC)OCO5 . Reported IC90?
Solution: 0.9

Exercise: Item under review: COc1cc2c(=O)n(CCN(C)C)c3c4cc5c(cc4ncc3c2cc1OC)OCO5 . Reported IC90?
Solution: 1.2

Exercise: Item under review: COc1cc2c(=O)n(CCN(C)C(C)C)c3c4cc5c(cc4ncc3c2cc1OC)OCO5 . Reported IC90?
Solution: 1
